Biological target: PDE 4
Test: PDE 4 enzyme inhibition test (SPA)
Format: biochemical, human
Conditions: reference compounds
measured.attribute: IC50

>  <molecule>
COc1cc2c(Cc3ccncc3)n[nH]c(=O)c2cc1OC [Reference 1, reference compound]

>  <subject.of.test>
PDE 4

>  <measured.attribute>
IC50

>  <recorded.result>
> 100 µM

$$$$

For the next question, use this molecule.
### Prompt Entry COc1cc2c(CC3CCNCC3)n[nH]c(=O)c2cc1OC [Reference 2, reference compound] : reported IC50 = ?
### Response > 100 µM

* * *

Target: PDE 5 (Homo sapiens, UniProt O76074)
Construct: Human platelets were prepared from platelet rich plasma (PRP); from tissue; host or cells: human platelets (platelet rich plasma, L. Sacco Hospital, Milan)
Assay: PDE 5 enzyme inhibition test (SPA)
Type: biochemical
Details: at 10^-6 M; enzyme from human platelets
measured.attribute: inhibition at 1 µM (%)

>  <compound>
COc1ccc2c(Cc3c(Cl)cncc3Cl)nncc2c1OC1CCCC1

>  <measurement.unit>
%

>  <inhibition at 1 µM>
20

$$$$
>  <compound>
FC(F)Oc1ccc2c(Cc3c(Cl)cncc3Cl)nncc2c1OC1CCOC1 (stereo not drawn)

>  <measurement.unit>
%

>  <inhibition at 1 µM>
0

$$$$
>  <compound>
COc1ccc2c(Cc3c(Cl)cncc3Cl)n[n+]([O-])cc2c1OC1CCCC1

>  <measurement.unit>
%

>  <inhibition at 1 µM>
4

$$$$

a. CCc1nnc(Cc2c(Cl)cncc2Cl)c2cc(OC3CCCC3)c(OC)cc12
b. FC(F)Oc1ccc2c(Cc3c(Cl)cncc3Cl)nncc2c1OC1CCCC1
### Prompt Higher inhibition at 1 µM: a or b ? Respond with the label that goes with your answer.
### Response a
